Biological target: Human BCMA (human) (UniProt Q02223)
Test: SPR, IgG immobilised, huBCMA analyte, 37 C
// values below are reported T½
Respond with the bare value in min.

Take a look at these entries with their results.
Which T½ reading was recorded for the binder L3.PY/L1.AH/H3.TAQ (antibody, V domains shown, IgG) VH: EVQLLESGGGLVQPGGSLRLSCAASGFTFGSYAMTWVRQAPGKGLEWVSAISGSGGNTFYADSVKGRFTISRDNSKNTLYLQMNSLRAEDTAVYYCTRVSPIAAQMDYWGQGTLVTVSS VL: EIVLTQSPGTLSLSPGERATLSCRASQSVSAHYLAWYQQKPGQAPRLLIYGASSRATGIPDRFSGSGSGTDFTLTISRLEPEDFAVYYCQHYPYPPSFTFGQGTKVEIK ?
9.68

How about this binder: L3.PY/L1.FF/H2.DY (antibody, V domains shown, IgG) VH: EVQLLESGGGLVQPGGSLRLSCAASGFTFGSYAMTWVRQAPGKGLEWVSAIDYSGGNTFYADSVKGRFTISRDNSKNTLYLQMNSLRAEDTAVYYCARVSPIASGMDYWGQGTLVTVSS VL: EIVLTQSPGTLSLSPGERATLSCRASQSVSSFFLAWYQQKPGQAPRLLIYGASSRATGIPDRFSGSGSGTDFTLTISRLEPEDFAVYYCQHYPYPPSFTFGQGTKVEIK
4.27

# input for lookup
So what does the record say about T½ for L3.PY/L1.PH/H2.HA (antibody, V domains shown, IgG) VH: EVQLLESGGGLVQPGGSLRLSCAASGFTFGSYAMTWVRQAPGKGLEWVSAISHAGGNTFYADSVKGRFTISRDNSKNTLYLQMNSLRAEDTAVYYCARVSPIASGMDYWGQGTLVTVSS VL: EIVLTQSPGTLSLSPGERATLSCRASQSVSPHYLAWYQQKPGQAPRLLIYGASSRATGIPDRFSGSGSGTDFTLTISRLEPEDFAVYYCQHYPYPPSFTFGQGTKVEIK ?
9.99
